Target Under Test: PARP7 (Homo sapiens)
Sequence (Q7Z3E1 1-657): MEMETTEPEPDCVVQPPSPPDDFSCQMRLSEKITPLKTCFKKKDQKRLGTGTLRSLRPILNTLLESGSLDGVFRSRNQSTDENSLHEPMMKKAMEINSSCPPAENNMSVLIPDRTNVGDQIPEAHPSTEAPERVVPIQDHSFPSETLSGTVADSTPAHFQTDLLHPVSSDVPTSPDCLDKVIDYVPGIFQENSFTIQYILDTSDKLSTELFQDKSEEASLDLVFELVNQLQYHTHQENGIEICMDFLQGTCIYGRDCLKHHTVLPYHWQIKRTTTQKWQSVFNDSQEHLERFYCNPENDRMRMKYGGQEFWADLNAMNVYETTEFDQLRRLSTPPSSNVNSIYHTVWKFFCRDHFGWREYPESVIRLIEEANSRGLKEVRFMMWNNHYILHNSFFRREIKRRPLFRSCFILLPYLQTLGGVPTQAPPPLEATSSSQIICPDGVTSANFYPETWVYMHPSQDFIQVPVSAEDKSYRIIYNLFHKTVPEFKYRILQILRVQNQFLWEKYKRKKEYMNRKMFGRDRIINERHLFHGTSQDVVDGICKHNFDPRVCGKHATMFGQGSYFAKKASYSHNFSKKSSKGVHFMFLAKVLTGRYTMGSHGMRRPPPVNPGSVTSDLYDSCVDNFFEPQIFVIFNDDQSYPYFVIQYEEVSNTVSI
Assay Text: Probe Displacement Assay for PARP7 (MSD electrochemiluminescent, biotinylated probe RBNO11147)
Condition Summary: displacement of biotinylated probe RBNO11147 from PARP7 NAD+-binding site; read-out: MSD ProbeDisp PARP7 IC50
We label by threshold. Values of IC50 strictly beneath 0.4 nM are yes. Values of 0.4 nM and up are no.

Qu. IC50 strictly < 0.4 nM for this molecule? `C[C@@H](CCCn1ccc2cc(-c3ccc(F)cn3)c(F)cc2c1=O)Nc1cn[nH]c(=O)c1C(F)(F)F`
Ans. no

Qu. Criterion: IC50 strictly below 0.4 nM. Is it met by `C[C@@H](CCCn1ccc2cc(-c3nc4ccccc4s3)c(F)cc2c1=O)Nc1cn[nH]c(=O)c1C(F)(F)F` ?
Ans. yes

Qu. Below 0.4 nM on IC50? Entry `C[C@@H](CCCn1ccc2cc(-c3cnc(C(F)(F)F)cn3)c(F)cc2c1=O)Nc1cn[nH]c(=O)c1C(F)(F)F`
Ans. yes

Qu. Is 0.4 nM strictly greater than the molecule's reported IC50? molecule: `C[C@@H](CCCn1ccc2cc(-c3ccc4c(c3)OCCO4)c(F)cc2c1=O)Nc1cn[nH]c(=O)c1C(F)(F)F`
Ans. no

Qu. For this molecule, is IC50 lower than 0.4 nM? `C[C@@H](CCCn1cnc2cc(-c3ccc(C(F)(F)F)cn3)c(F)cc2c1=O)Nc1cn[nH]c(=O)c1C(F)(F)F`
Ans. no

Qu. Given the entry `C[C@@H](CCCn1ccc2cc(-c3cc4ccccn4n3)c(F)cc2c1=O)Nc1cn[nH]c(=O)c1C(F)(F)F` , would its reported IC50 be below 0.4 nM?
Ans. yes

Qu. IC50 under 0.4 nM? Item: `Nc1nc(-c2cc3ccn(CCC[C@H](COC(F)F)Nc4cn[nH]c(=O)c4C(F)(F)F)c(=O)c3cc2F)ccc1C(F)(F)F`
Ans. yes
